Target: Cholecystokinin receptor type A (Homo sapiens)
Sequence (P32238 whole entry): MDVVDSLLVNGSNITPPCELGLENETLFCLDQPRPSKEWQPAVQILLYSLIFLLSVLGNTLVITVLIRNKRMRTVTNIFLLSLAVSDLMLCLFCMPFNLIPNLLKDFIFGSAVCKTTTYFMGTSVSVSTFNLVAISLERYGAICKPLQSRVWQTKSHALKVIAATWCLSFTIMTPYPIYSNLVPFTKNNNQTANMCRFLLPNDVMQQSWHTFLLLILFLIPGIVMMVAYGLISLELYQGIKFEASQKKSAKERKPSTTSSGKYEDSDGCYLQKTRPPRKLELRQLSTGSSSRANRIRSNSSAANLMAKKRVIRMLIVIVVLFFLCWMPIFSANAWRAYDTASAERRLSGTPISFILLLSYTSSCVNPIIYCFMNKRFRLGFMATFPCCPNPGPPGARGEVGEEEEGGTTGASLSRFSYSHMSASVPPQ
Assay: Displacement of [3H]L-364718 from human recombinant CCK1 receptor expressed in CHOK1 cells
Type: cell-based, CHO-K1
PROPERTY: pKi
Please keep in mind that pKi is minus log10 of the molar concentration; only the number is needed.

Here's what some known entries look like.
{"columns": ["LINE_NOTATION", "pKi"],
 "data": [
  ["CC1(C(=O)CN2C(=O)N(CC(=O)Nc3cccc(C(=O)O)c3)N=C(C3CCCCC3)c3ccccc32)CCCC1", 5.40],
  ["CC(C)(C)C(=O)CN1C(=O)N(CC(=O)Nc2ccc3cnn(CC(=O)O)c3c2)N=C(C2CCCCC2)c2ccccc21", 5.67],
  ["CC(C)(C)C(=O)CN1C(=O)N(CC(=O)Nc2cccc(-c3nc(C(=O)O)co3)c2)N=C(C2CCCCC2)c2ccccc21", 6.18]
]}

**Q:** Query for Cholecystokinin receptor type A (Homo sapiens): what pKi does the record show for CC(C)(C)C(=O)CN1C(=O)N(CC(=O)Nc2ccc3c(ccn3CC(=O)O)c2)N=C(C2CCCCC2)c2ccccc21 ?
**A:** 5.60

====

Experiment: Volume of distribution at steady state in dog at 2.5 mg/kg, iv
Assay type: ADME, organism-based, Canis lupus familiaris
Set-up: dose 2.5 mg/kg, route intravenous
Settings: in vivo, read-out: Vdss
PROPERTY: Vd (L/kg)
I only need the number, in L/kg, no unit after it.

**Q:** Reported Vd, molecule O=C(CN1N=C(C2CCCCC2)c2ccccc2N(CC(=O)C2CCCC2)C1=O)Nc1cccc(-c2nc(=O)o[nH]2)c1 : ____
**A:** 0.13

====

# maps each entry to its Kb
Target: Gastrin/cholecystokinin type B receptor (Rattus norvegicus, UniProt P30553)
Sequence (P30553 whole entry, the tested form may be a part): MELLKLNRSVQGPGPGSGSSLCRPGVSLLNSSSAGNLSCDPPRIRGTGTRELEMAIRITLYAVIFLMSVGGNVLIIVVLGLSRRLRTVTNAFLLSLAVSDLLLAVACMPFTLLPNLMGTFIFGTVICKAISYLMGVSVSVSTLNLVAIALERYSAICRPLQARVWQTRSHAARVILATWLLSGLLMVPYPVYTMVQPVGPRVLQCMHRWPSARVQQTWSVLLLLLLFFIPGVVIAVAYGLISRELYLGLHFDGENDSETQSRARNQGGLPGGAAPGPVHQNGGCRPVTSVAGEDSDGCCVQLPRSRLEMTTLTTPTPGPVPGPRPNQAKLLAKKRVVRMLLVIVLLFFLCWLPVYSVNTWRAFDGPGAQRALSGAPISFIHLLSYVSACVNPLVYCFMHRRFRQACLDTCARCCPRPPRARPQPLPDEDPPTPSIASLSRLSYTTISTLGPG
Test: Antagonist activity at CCK2 receptor in perfused rat stomach assessed as inhibition of pentagastrin-stimulated gastric acid secretion
Format: functional, tissue-based
Conditions: read-out: pA2 (converted)
I only need the number, in nM, no unit after it.

{"columns": ["LINE_NOTATION", "U", "MEASURED"],
 "data": [
  ["CN(c1cccc(NC(=O)CN2N=C(C3CCCCC3)c3ccccc3N(CC(=O)C(C)(C)C)C2=O)c1)c1nn[nH]n1", "nM", 24]
]}

Now, please, on to the next compound.
**Q:** Reported Kb, compound O=C(CN1N=C(C2CCCCC2)c2ccccc2N(CC(=O)C2CCCC2)C1=O)Nc1cccc(C(=O)O)c1 : ____
**A:** 1.95

====

Assay: Half life beta in po dosed dog
Assay type: ADME, organism-based, Canis lupus familiaris
Settings: in vivo, read-out: beta t1/2 (converted)
PROPERTY: half-life (min)
I only need the number, in min, no unit after it.

**Q:** Reported half-life, compound O=C(CN1N=C(C2CCCCC2)c2ccccc2N(CC(=O)C2CCCC2)C1=O)Nc1cccc(-c2nc(=O)o[nH]2)c1 : ____
**A:** 246

====

Experiment: Bioavailability in po dosed dog
Assay type: ADME, organism-based, Canis lupus familiaris
Conditions: in vivo
PROPERTY: bioavailability (%)
I only need the number, in %, no unit after it.

**Q:** Reported bioavailability, molecule O=C(CN1N=C(C2CCCCC2)c2ccccc2N(CC(=O)C2CCCC2)C1=O)Nc1cccc(-c2nc(=O)o[nH]2)c1 : ____
**A:** 41
